system: Puccinia triticina; Synonym: Puccinia recondite f. sp. tritici; test: Wheat brown rust (PUCCRT) disease control on wheat seedlings; assay type: in vivo; settings: Puccinia triticina, 72 h; High volume application, 100 ppm; 3 Day Curative; read-out: PUCCRT 3DC disease control
Here, each record is paired with measured pest or weed control at 100 ppm data.

Here is how some compounds turned out for pest or weed control at 100 ppm.
{"Compound": "COc1ccnc(C(=O)N[C@H]2CCC[C@H](Oc3ccc(C)cc3)[C@@H](Oc3ccc(C)cc3)[C@H](C)OC2=O)c1OCOC(C)=O [F115]", "pest or weed control at 100 ppm": "0 to 80%"}
{"Compound": "COc1ccnc(C(=O)N[C@H]2CCC[C@H](Oc3ccccc3)[C@@H](OC/C=C/C(F)(F)F)[C@H](C)OC2=O)c1OCOC(C)=O [F106]", "pest or weed control at 100 ppm": "80 to 100%"}
{"Compound": "COCCC(=O)Oc1c(OC)ccnc1C(=O)N[C@H]1CCC[C@H](OCC(C)C)[C@@H](OC(=O)C2CCCC2)[C@H](C)OC1=O [F152]", "pest or weed control at 100 ppm": "80 to 100%"}
{"Compound": "COc1ccnc(C(=O)N[C@H]2CCC[C@H](OCCCc3ccccc3)[C@@H](OC3CCCC3)[C@H](C)OC2=O)c1O [F224]", "pest or weed control at 100 ppm": "0 to 80%"}
{"Compound": "COc1ccnc(C(=O)N[C@H]2CCC[C@H](OCC(C)C)[C@@H](OC3CCCC3)[C@H](C)OC2=O)c1OCOC(C)=O [F39]", "pest or weed control at 100 ppm": "80 to 100%"}

Problem: Quote pest or weed control at 100 ppm reported for COc1ccnc(C(=O)N[C@H]2CCC[C@H](OC(=O)C3CCCC3)[C@@H](OCC(C)C)[C@H](C)OC2=O)c1O [F221] please.
Result: 0 to 80%

Problem: Identify the reported pest or weed control at 100 ppm for the following entry. COc1ccnc(C(=O)N[C@H]2CCC[C@H](OCC3CC3)[C@@H](OCC3CC3)[C@H](C)OC2=O)c1O [F117]
Result: 80 to 100%

Problem: Please report pest or weed control at 100 ppm for the following compound: CCCCCO[C@H]1[C@H](C)OC(=O)[C@@H](NC(=O)c2nccc(OC)c2OC(C)=O)CCC[C@@H]1OCC(C)C [F89]
Result: 80 to 100%

###

Listing of entries alongside the reported pest or weed control at 100 ppm.
system: Mycosphaerella graminicola; Anamorph: Septoria tritici; test: Leaf blotch of wheat (SEPTTR) disease control on wheat seedlings; assay type: in vivo; conditions: Zymoseptoria tritici, 24 h; Wheat Leaf Blotch; 1 Day Protectant; high volume application, 100 ppm; read-out: Disease Control SEPTTR 1 DP 100 ppm

Examples with their reported pest or weed control at 100 ppm follow.
{"Compound": "CCCO[C@H]1CCC[C@H](NC(=O)c2nccc(OC)c2OCOC(C)=O)C(=O)O[C@@H](C)[C@@H]1Oc1ccc(F)cc1 [F265]", "Test result": "80 to 100%"}
{"Compound": "CCCO[C@H]1[C@H](C)OC(=O)[C@@H](NC(=O)c2nccc(OC)c2OC(C)=O)CCC[C@@H]1Oc1cc(C)cc(C)c1 [F282]", "Test result": "80 to 100%"}
{"Compound": "CCCO[C@H]1[C@H](C)OC(=O)[C@@H](NC(=O)c2nccc(OC)c2O)CCC[C@@H]1Oc1cc(C)cc(C)c1 [F281]", "Test result": "0 to 80%"}
{"Compound": "C=C(C)c1ccc(O[C@H]2[C@H](C)OC(=O)[C@@H](NC(=O)c3nccc(OC)c3OC(C)=O)CCC[C@@H]2OCCC)cc1 [F289]", "Test result": "80 to 100%"}
{"Compound": "CCCO[C@H]1CCC[C@H](NC(=O)c2nccc(OC)c2O)C(=O)O[C@@H](C)[C@@H]1Oc1ccc(-c2ccccc2)cc1 [F283]", "Test result": "80 to 100%"}

Problem: For COc1ccnc(C(=O)N[C@H]2CCC[C@H](Oc3ccccc3)[C@@H](OC(=O)C3CCCC3)[C@H](C)OC2=O)c1OC(C)=O [F235] , write its pest or weed control at 100 ppm.
Result: 80 to 100%

Problem: Dear colleague, please send me the reported pest or weed control at 100 ppm for C=C(C)CO[C@H]1CCC[C@H](NC(=O)c2nccc(OC)c2O)C(=O)O[C@@H](C)[C@@H]1OC [F245] when you can.
Result: 0 to 80%

Problem: Provide one value: measured pest or weed control at 100 ppm of CCCOC(=O)O[C@H]1CCC[C@H](NC(=O)c2nccc(OC)c2O)C(=O)O[C@@H](C)[C@@H]1Oc1cc(C)cc(C)c1 [F290]
Result: 0 to 80%
